Kindly supply the reported EC50 values for the records listed here.
# tested.on: 5-HT4 receptors (Rattus norvegicus, UniProt Q62758)
# Construct: from tissue; host or cells: rat oesophageal tunica muscularis mucosae
# Sequence (Q62758 whole entry): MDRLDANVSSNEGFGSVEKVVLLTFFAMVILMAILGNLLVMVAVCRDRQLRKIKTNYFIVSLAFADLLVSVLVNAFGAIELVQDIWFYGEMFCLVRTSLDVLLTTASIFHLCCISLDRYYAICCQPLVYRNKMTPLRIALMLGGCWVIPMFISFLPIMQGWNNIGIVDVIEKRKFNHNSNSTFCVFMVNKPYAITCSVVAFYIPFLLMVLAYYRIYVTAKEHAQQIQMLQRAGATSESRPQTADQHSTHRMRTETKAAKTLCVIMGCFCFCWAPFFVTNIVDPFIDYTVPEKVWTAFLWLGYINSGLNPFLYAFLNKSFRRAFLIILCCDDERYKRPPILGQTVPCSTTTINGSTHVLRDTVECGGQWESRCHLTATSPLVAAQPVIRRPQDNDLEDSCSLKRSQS
# assay.procedure: Relaxation of carbachol-contracted rat oesophageal tunica muscularis mucosae
# Type: cell-based
Counter-ions that a name gives are not always drawn.
Answers are plain numbers, in nM.

CCCCN1[C@@H]2COC[C@H]1C[C@@H](NC(=O)c1nn(CC=C(C)C)c3ccccc13)C2	6760
CC(C)n1nc(C(=O)N[C@H]2C[C@H]3COC[C@@H](C2)N3)c2ccccc21 [Example 28, (hydrochloride)]	468
CCCCN1[C@@H]2COC[C@H]1C[C@@H](NC(=O)c1nn(C3CCCC3)c3ccccc13)C2	7760
CC#CC(C)n1nc(C(=O)N[C@H]2C[C@H]3COC[C@@H](C2)N3CCCC)c2ccccc21 (relative stereo)	2240
CCCCN1[C@@H]2COC[C@H]1C[C@@H](NC(=O)c1nn([C@@H](C)CC)c3ccccc13)C2	437
CCCCN1[C@@H]2COC[C@H]1C[C@@H](NC(=O)c1nn(C(CC)CC)c3ccccc13)C2	851

Look up EC50: CCCCN1[C@@H]2COC[C@H]1C[C@@H](NC(=O)c1nn(C(C)C)c3ccc(O)cc13)C2 [Example 26, (hydrochloride)]
10500
